Numbers sourced from patent US8247211B2.

Can you tell me MIC Coagulase Negative Staphylococcus (GC 4551) for the items I'm about to list?
# Tested on: Staphylococcus sp.
# Assay comment: In vitro antibacterial evaluation: minimum inhibitory concentration (MIC), broth dilution method
# Format: cell-based
# Protocol conditions: Coagulase Negative Staphylococcus (GC 4551); 18 hours at 35° C.
Enter your answer as a number in µg/mL; do not include the unit.

Request: Report MIC Coagulase Negative Staphylococcus (GC 4551), nothing else, for this compound: CC(c1ccccc1)C1NC(=O)CNC(=O)C(CO[Si](C)(C)C(C)(C)C)NC(=O)C(C(O)C2CNC(=N)N2C2OC3COC(C)(C)OC3C3OC(C)(C)OC32)NC(=O)C(C(O)C2CNC(=N)N2)NC(=O)C(Cc2ccc(O)cc2)NC1=O (centres unmarked)
Response: 32

Request: Report MIC Coagulase Negative Staphylococcus (GC 4551) for CC(C)CC(=O)OC1C(O)C(CO)OC(OC2C(CO)OC(Oc3ccc(CC4NC(=O)C(C(C)c5cccc(F)c5)NC(=O)CNC(=O)C(CO)NC(=O)C(C(O)C5CNC(=N)N5C5OC(CO)C(O)C(O)C5O)NC(=O)C(C(O)C5CNC(=N)N5)NC4=O)cc3)C(O)C2O)C1O (centres unmarked) [Example 264b]
Response: 8

Request: Note down MIC Coagulase Negative Staphylococcus (GC 4551) recorded for CCC(C)C(=O)OC1C(CO)OC(OC2C(CO)OC(Oc3ccc(CC4NC(=O)C(C(C)c5ccccc5)NC(=O)CNC(=O)C(CO)NC(=O)C(C(O)C5CNC(=N)N5C5OC(CO)C(O)C(O)C5O)NC(=O)C(C(O)C5CNC(=N)N5)NC4=O)cc3)C(O)C2O)C(O)C1O (centres unmarked) [Example 278c]
Response: 8

Request: Please supply the value of reported MIC Coagulase Negative Staphylococcus (GC 4551) for the item Cc1ccc(COCC2OC(OC3C(CO)OC(Oc4ccc(CC5NC(=O)C(C(C)c6ccccc6)NC(=O)CNC(=O)C(CO)NC(=O)C(C(O)C6CNC(=N)N6C6OC(CO)C(O)C(O)C6O)NC(=O)C(C(O)C6CNC(=N)N6)NC5=O)cc4)C(O)C3O)C(O)C(O)C2O)cc1 (centres unmarked)
Response: 2

Request: Provide measured MIC Coagulase Negative Staphylococcus (GC 4551) value, entry: CC(c1ccccc1)C1NC(=O)CNC(=O)C(CO)NC(=O)C(C(O)C2CNC(=N)N2C2OC(CO)C(O)C(O)C2O)NC(=O)C(C(O)C2CNC(=N)N2)NC(=O)C(Cc2ccc(OC3OC(CO)C(OC4OC(COC(=O)NCc5ccccc5)C(O)C(O)C4O)C(O)C3O)cc2)NC1=O (centres unmarked) [Example 257b]
Response: 4

Request: Return the recorded MIC Coagulase Negative Staphylococcus (GC 4551) value; entry: CC(c1ccccc1)C1NC(=O)CNC(=O)C(CO)NC(=O)C(C(O)C2CNC(=N)N2C2OC(CO)C(O)C(O)C2O)NC(=O)C(C(O)C2CNC(=N)N2)NC(=O)C(Cc2ccc(OC3OC(CO)C(OC4OC(CO)C(OCC=C(c5ccccc5)c5ccccc5)C(O)C4O)C(O)C3O)cc2)NC1=O (centres unmarked) [Example 241a]
Response: 4

Request: Provide one value: measured MIC Coagulase Negative Staphylococcus (GC 4551) of CC(c1ccccc1)C1NC(=O)CNC(=O)C(CO)NC(=O)C(CC2CNC(=N)N2C2OC(CO)C(O)C(O)C2O)NC(=O)C(CC2CNC(=N)N2)NC(=O)C(Cc2ccc(OC3OC(CO)C(OC4OC(CO)C(O)C(OCc5ccc(OCc6ccccc6)cc5)C4O)C(O)C3O)cc2)NC1=O (centres unmarked) [Example 246b]
Response: 64
